B1: tRNA (parent)
chain: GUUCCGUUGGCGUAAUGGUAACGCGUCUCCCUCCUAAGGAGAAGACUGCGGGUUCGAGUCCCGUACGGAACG

variants of: B1; test: yeast fitness relative to wild type (ratio to wild type); higher = fitter; tRNA-Arg(CCU), competitive growth, 37 C, YPD
Fewer inactive variants are shown than the library holds.
Listed variants paired with reported yeast fitness
Reply briefly: the number, and no unit.

seq-string	reading
GUAUCGUUGGCGUAAUGGUAACGCGUCUCCCUCCUAAGGAGAAGACUGCGGGUUCGAGUCCCGUACCGAACG	0.624

So what does the record say about yeast fitness for GUUCCGUUGGCGUAAUGGUAACGCGUCUCCCUCCUAAGGAGAAGACGGCGGGUUCGAGUCCCGUCCGGAACG ? 0.672

Need yeast fitness of GUUCCGUUGGCGUUAUGGUAACGCGUCUCCCUCCUAAGGAGAGGACUGCGGGUUCGAGGCCGAUACGGAACG , thanks. 0.558

For GUUCCGUUGGCGUAAUGGUAACGCGUCUCCCUCCAAAGGAGAAGAAUGGGGAUUCGAGUUCCGUACGGAACG , what is its reported yeast fitness? 0.661
